Molecular target: CYP2C19 (Homo sapiens)
Sequence (P33261 whole entry): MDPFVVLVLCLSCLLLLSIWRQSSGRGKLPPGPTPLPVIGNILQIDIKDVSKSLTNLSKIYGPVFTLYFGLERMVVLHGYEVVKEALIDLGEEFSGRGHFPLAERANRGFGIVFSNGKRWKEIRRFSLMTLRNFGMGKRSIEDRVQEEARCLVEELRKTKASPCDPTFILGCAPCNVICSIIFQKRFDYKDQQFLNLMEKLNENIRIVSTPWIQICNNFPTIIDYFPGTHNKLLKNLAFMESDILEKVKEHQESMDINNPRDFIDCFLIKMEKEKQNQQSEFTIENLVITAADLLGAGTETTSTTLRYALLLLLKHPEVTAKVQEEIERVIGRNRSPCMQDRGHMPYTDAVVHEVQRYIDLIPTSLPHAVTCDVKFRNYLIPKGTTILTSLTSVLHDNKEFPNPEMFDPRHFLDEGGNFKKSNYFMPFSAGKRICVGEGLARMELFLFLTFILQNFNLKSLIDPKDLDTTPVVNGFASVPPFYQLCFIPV
Assay: Inhibition of CYP2C19 in human liver microsomes assessed as compound remaining at 1 uM measured after 2 hrs incubation by LC-MS/MS analysis
Type: ADME, Microsome
Details: read-out: Activity
READOUT KIND: remaining at 2 h, 1 µM (%)

{"SMILES STRUCTURE": "C[C@@H](NC(=O)c1cnc(-c2ccc(S(C)(=O)=O)cc2)s1)c1cn(-c2cc(C(F)(F)F)ccn2)nn1", "TARGET SYSTEM": "CYP2C19 (Homo sapiens)", "remaining at 2 h, 1 µM / %": 84.2}
{"SMILES STRUCTURE": "C[C@H](NC(=O)c1cnc(-c2ccc(S(C)(=O)=O)cc2)s1)c1cn(-c2cc(C(F)(F)F)ccn2)nn1", "TARGET SYSTEM": "CYP2C19 (Homo sapiens)", "remaining at 2 h, 1 µM / %": 100}

Data provenance: ChEMBL document CHEMBL6120956
